Data origin: ChEMBL document CHEMBL1201862

Listed below: GI50 values for each entry.
- Tested on: DU-145
- assayNotes: NCI tumour cell line growth inhibition, 48 h
The source made the active and inactive calls. Rule as the data show it: active = GI50 up to about 1.1 µM and inactive = higher.

[
  {
    "compound": "Cc1c2cccc-2c(N(C)C)cc2c1[nH]c1ccccc12",
    "target": "DU-145",
    "GI50": "14.6 µM (inactive)"
  },
  {
    "compound": "N#Cc1ncn(CCO)c1N",
    "target": "DU-145",
    "GI50": "> 100 µM (inactive)"
  },
  {
    "compound": "C/C(CC(O)(C(F)(F)F)C(F)(F)F)=N\\N",
    "target": "DU-145",
    "GI50": "> 10 µM (inactive)"
  },
  {
    "compound": "Cn1c(=O)c2c(nc3sc4nc5ccccc5nc4n32)n(C)c1=O",
    "target": "DU-145",
    "GI50": "> 100 µM (inactive)"
  },
  {
    "compound": "Oc1ccc2c3c1OC1c4[nH]ncc4C[C@H]4[C@@H](C2)N(CC2CC2)CC[C@]314 (stereo partly specified)",
    "target": "DU-145",
    "GI50": "> 100 µM (inactive)"
  },
  {
    "compound": "N/N=C1/C2CN3CCN(C2)CC1(c1ccc([N+](=O)[O-])cc1)C3",
    "target": "DU-145",
    "GI50": "> 100 µM (inactive)"
  }
]

---

Listed below: GI50 values for each entry.
- Tested on: UACC-62
- assayNotes: NCI tumour cell line growth inhibition, 48 h
The source made the active and inactive calls. Rule as the data show it: active = GI50 up to about 1.1 µM and inactive = higher.
measurementType: GI50

[
  {
    "compound": "COc1cc(C)cc2c(-c3c(O)cc(O)c4c3C[C@H](C)N[C@H]4C)cc(-c3cc(-c4c(O)cc(O)c5c4C[C@H](C)N[C@H]5C)c4cc(C)cc(OC)c4c3O)c(O)c12",
    "measurementType": "GI50",
    "dataValue": "> 100 µM (inactive)"
  },
  {
    "compound": "COc1cc2c(c(OC)c1OC)-c1ccc(OC)c(=O)cc1C(NC(=O)CCCCCNc1ccc(N=[N+]=[N-])cc1[N+](=O)[O-])CC2 (stereo not given)",
    "measurementType": "GI50",
    "dataValue": "< 0.01 µM (active)"
  },
  {
    "compound": "O=c1[nH]cc(-c2c[nH]c3ccccc23)nc1-c1c[nH]c2ccccc12",
    "measurementType": "GI50",
    "dataValue": "11.1 µM (inactive)"
  },
  {
    "compound": "Nc1nc(O)nc2snnc12",
    "measurementType": "GI50",
    "dataValue": "7.26 µM (inactive)"
  },
  {
    "compound": "Cc1cc(O)nc2cc3oc4ccccc4c3cc12",
    "measurementType": "GI50",
    "dataValue": "17.5 µM (inactive)"
  },
  {
    "compound": "CC1=C(C(=O)CC(=O)C(=O)Nc2cc(C)ccc2C)Sc2ccccc2N1",
    "measurementType": "GI50",
    "dataValue": "> 100 µM (inactive)"
  },
  {
    "compound": "Cc1ncc([N+](=O)[O-])n1CCN=[N+]=[N-]",
    "measurementType": "GI50",
    "dataValue": "> 100 µM (inactive)"
  },
  {
    "compound": "CN(C)c1ccc(C=C2N=C(c3ccccc3)N(c3cc(C(=O)c4ccccc4)ccc3N3C(=O)/C(=C/c4ccc(N(C)C)cc4)N=C3c3ccccc3)C2=O)cc1",
    "measurementType": "GI50",
    "dataValue": "4.24 µM (inactive)"
  },
  {
    "compound": "COC(=O)c1ccc2c(c1)S/C(=C/c1ccc3ccc4cccc5ccc1c3c45)S2",
    "measurementType": "GI50",
    "dataValue": "22.9 µM (inactive)"
  },
  {
    "compound": "CC1=NC(C(C)C)C(=O)O1 (stereo not given)",
    "measurementType": "GI50",
    "dataValue": "> 100 µM (inactive)"
  }
]

---

- Test system: A498
- assayNotes: NCI tumour cell line growth inhibition, 48 h
Calls of active or inactive are those of the source. Cut-off read from the data, not from the text of the source: active = GI50 up to about 1.1 µM and inactive = higher.
Labels: active, inactive

[
  {
    "molecule": "CNc1ccc(N)cc1C(=O)N1CCC[C@H]1CO",
    "classLabel": "inactive"
  },
  {
    "molecule": "c1cc2nnsc2s1",
    "classLabel": "inactive"
  },
  {
    "molecule": "CCN(CC)c1ccc2cc(C(=O)Nc3ccc4[nH]c(C(=O)N5C[C@@H](CCl)c6c5cc(OC(=O)Nc5ccccc5)c5[nH]cc(C)c65)cc4c3)oc2c1 [CARZELESIN]",
    "classLabel": "active"
  },
  {
    "molecule": "Nc1ccccc1C(=O)NC(=O)Nc1ccc(Oc2ncc(Br)cn2)c(Cl)c1",
    "classLabel": "active"
  },
  {
    "molecule": "N#CC1=C(N)C(C#N)(C#N)C(c2ccc(F)cc2)C=C1C1CC1 (stereo not given)",
    "classLabel": "inactive"
  },
  {
    "molecule": "CCC(C)C(NC(=O)c1c2ccccc2nc2ccccc12)C(=O)O (stereo not given)",
    "classLabel": "inactive"
  },
  {
    "molecule": "O=C1NC(=S)NC(=O)C1C(c1ccc(Cl)cc1)C1C(=O)NC(=S)NC1=O.c1ccncc1",
    "classLabel": "inactive"
  },
  {
    "molecule": "CC(=O)Nc1ccc(OC/C(N)=N/NC(=O)c2ccncc2)cc1",
    "classLabel": "inactive"
  },
  {
    "molecule": "CC1=C(C(=O)CC(=O)C(=O)Nc2ccccc2C(F)(F)F)Sc2ccccc2N1",
    "classLabel": "inactive"
  },
  {
    "molecule": "O=C(Nc1nc(C23CC4CC(CC(C4)C2)C3)cs1)c1cc2cc(Cl)ccc2oc1=O",
    "classLabel": "inactive"
  }
]

---

Listed below: GI50 values for each entry.
- Tested on: UACC-62
- assayNotes: NCI tumour cell line growth inhibition, 48 h
Activity calls are given as the source filed them. No stated cut-off is given here; in the data, active = GI50 up to about 1.1 µM and inactive = higher.
measurementType: GI50

[
  {
    "compound": "NC(=O)/C(=N\\NC(=O)C[n+]1ccccc1)C1NC(=O)NC1=O (centres undefined)",
    "dataValue": "> 100 µM (inactive)"
  },
  {
    "compound": "CCOC(=O)C(C(=O)c1ccccc1-c1ccccc1C(=O)O)=P(c1ccccc1)(c1ccccc1)c1ccccc1",
    "dataValue": "17.4 µM (inactive)"
  },
  {
    "compound": "N#Cc1sc2c(c1OC(=O)c1ccc(C(F)(F)F)cc1)c(=O)n(-c1ccccc1)c(=S)n2-c1ccccc1",
    "dataValue": "22.4 µM (inactive)"
  },
  {
    "compound": "CCCCCCCC/C=C1\\CCC(CN(C)C)C1=O (centres undefined)",
    "dataValue": "7.41 µM (inactive)"
  },
  {
    "compound": "O=C(O)c1ccccc1NS(=O)(=O)c1ccc(Cl)cc1",
    "dataValue": "> 100 µM (inactive)"
  },
  {
    "compound": "Cc1ccc2c(c1)-c1nc(N)c(C#N)c(-c3ccccc3)c1CCS2(=O)=O",
    "dataValue": "49.7 µM (inactive)"
  },
  {
    "compound": "COc1nc2c(c(=O)n1C)N=C(c1ccc(Cl)cc1)CC(c1ccccc1)N2 (centres undefined)",
    "dataValue": "17.6 µM (inactive)"
  },
  {
    "compound": "CCOC(=O)/C=C/C1=C(Br)[C@@]2(C)CC[C@@H]3c4ccc(O)cc4CC[C@H]3[C@@H]2C1",
    "dataValue": "6.85 µM (inactive)"
  },
  {
    "compound": "COc1cc(/C=C2\\NC(=S)C3Cc4c(OC)c(C)c(OC)c(OC)c4C2N3C)c(OC)c(C)c1OC (centres undefined)",
    "dataValue": "98.4 µM (inactive)"
  }
]

---

- Test system: NCI-H23
- assayNotes: NCI tumour cell line growth inhibition, 48 h
Calls of active or inactive are those of the source. No stated cut-off is given here; in the data, active = GI50 up to about 1.1 µM and inactive = higher.

[
  {
    "molecule": "C1OCN2c3nonc3N3COCN4c5nonc5N1C2C43 (stereo not given)",
    "target": "NCI-H23",
    "GI50": "> 100 µM (inactive)"
  },
  {
    "molecule": "[N-]=[N+]=NC(CCl)c1cn([C@H]2C[C@H](O)[C@@H](CO)O2)c(=O)[nH]c1=O (stereo not given in full)",
    "target": "NCI-H23",
    "GI50": "> 100 µM (inactive)"
  },
  {
    "molecule": "C1=C2C3=[N+](CCCC3)CC2Cc2sccc21 (stereo not given)",
    "target": "NCI-H23",
    "GI50": "> 100 µM (inactive)"
  },
  {
    "molecule": "CN1C(=O)[C@@H]2[C@@H]3c4ccccc4N[C@@H]3c3[nH]c4ccccc4c3[C@@H]2C1=O",
    "target": "NCI-H23",
    "GI50": "13.9 µM (inactive)"
  },
  {
    "molecule": "COc1ccc(/C=C/CN(C)CCc2ccccc2)cc1OC",
    "target": "NCI-H23",
    "GI50": "> 100 µM (inactive)"
  }
]
